B1: KLHL14 (parent)
chain: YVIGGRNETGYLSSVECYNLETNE

variants of: B1; assay: protein stability index of a GFP-peptide fusion (GPS, HEK-293T) (PSI 1-6); higher = more stable; conditions: c terminus: a fixed tail appended;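 note: lentivirally expressed fusions sorted by FACS into six bins by GFP to DsRed ratio, PSI derived from sequencing read proportions per bin multiplied by bin number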
endpoint label: protein stability index
Answers are plain numbers.

Would you please look over these solved cases?
YVIGGRNETGYLSSVGCYNLETNE ... 1.54
YVIGGRNETGKLSSVECYNLETNE ... 2.86
YVIGGRTETGYLSSVECYNLETNE ... 1.85
YPIGGRNETGYLSSVECYNLETNE ... 3.9
YVIGGRNETGYLSSVERYNLETNE ... 2.39
YVIGGRNETGYLSSVECWNLETNE ... 2.21

Give one value of protein stability index per listed variant.
1. YVIGGRNETGYLSSVECYNLETNI
2. YVIGGRNETGYLSSVECYNLEINE
3. YVIGGRNETGYLSSQECYNLETNE
4. YVIGGRWETGYLSSVECYNLETNE
5. YVIGGRNETGYLSSVECYILETNE

[2.19, 1.84, 2.49, 1.63, 2.07]

Give one value of protein stability index per listed variant.
1. YVIGGRNKTGYLSSVECYNLETNE
2. YVIGGRNWTGYLSSVECYNLETNE
3. YDIGGRNETGYLSSVECYNLETNE
4. YVIGGRNETGYISSVECYNLETNE
5. YVRGGRNETGYLSSVECYNLETNE
6. YVIGGRNETGQLSSVECYNLETNE
7. YVIGGRNETGYDSSVECYNLETNE
8. YVIGGRNETGYQSSVECYNLETNE

1.89
2.08
4.57
2.25
1.49
3.1
3.42
2.42

Give one value of protein stability index per listed variant.
1. YVIGGRNETGYLSSVECYNLETHE
2. YVIGDRNETGYLSSVECYNLETNE
3. YVIGGRNETGYASSVECYNLETNE
4. YVIGGRNETSYLSSVECYNLETNE
5. YVIGGRNETGMLSSVECYNLETNE
6. YVIGGRNETGYLSSVQCYNLETNE
7. YVIGGRNETGFLSSVECYNLETNE

1. 1.86
2. 3.12
3. 2.62
4. 1.93
5. 1.96
6. 1.96
7. 1.83

Give one value of protein stability index per listed variant.
1. YVIGGRNETGYKSSVECYNLETNE
2. YVIGGRRETGYLSSVECYNLETNE
3. YNIGGRNETGYLSSVECYNLETNE
4. YVIGGRNETGYLSSVECYFLETNE

2.16
2.38
4.24
3.39
